Tested on: biotinyl-Met-oxazolone
Experiment: self-aminoacylation, catalytic enhancement (BMO) (fold over background); higher = more active; k-Seq, kA / k0A0; sequences stand for … in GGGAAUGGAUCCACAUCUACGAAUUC…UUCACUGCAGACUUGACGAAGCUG
Fewer inactive variants are shown than the library holds.
The entries below are paired with their reported self-aminoacylation.
endpoint.name: self-aminoacylation

sequence_data="AUUAACCUAGGUCAUCGGGCG [Fam2.2 aminoacylation ribozyme variant]" endpoint_name=self-aminoacylation observed_result=3.99
sequence_data="CUACUCCAAACAAUCGGCCUG [Fam1A.1 aminoacylation ribozyme variant]" endpoint_name=self-aminoacylation observed_result=1.38
sequence_data="CUACUUAAAACAAUCGGUCCG [Fam1A.1 aminoacylation ribozyme variant]" endpoint_name=self-aminoacylation observed_result=1.12
sequence_data="AUUCACCCAGGUAAUCGGGUG [Fam2.2 aminoacylation ribozyme variant]" endpoint_name=self-aminoacylation observed_result=3.1
sequence_data="AUUCACCUAGGUCAUCGCGUG [Fam2.2 aminoacylation ribozyme variant]" endpoint_name=self-aminoacylation observed_result=13
sequence_data="AUGACGCUGGUCAUCGAGUGA [Fam2.1 aminoacylation ribozyme variant]" endpoint_name=self-aminoacylation observed_result=6.65
sequence_data="CUACACUUCAAGCAAUCGGCC [Fam1B.1 aminoacylation ribozyme variant]" endpoint_name=self-aminoacylation observed_result=1.69
sequence_data="AUUCACCUAGAUCGUCGGGUG [Fam2.2 aminoacylation ribozyme variant]" endpoint_name=self-aminoacylation observed_result=1.06
sequence_data="CUACUCCAAACAAUAGGUCUG [Fam1A.1 aminoacylation ribozyme variant]" endpoint_name=self-aminoacylation observed_result=0.938
sequence_data="CUACUUUAAACAAUCGGGCUG [Fam1A.1 aminoacylation ribozyme variant]" endpoint_name=self-aminoacylation observed_result=1.25
sequence_data="UUUACCCUGGUCAACGAGUGA [Fam2.1 aminoacylation ribozyme variant]" endpoint_name=self-aminoacylation observed_result=5.61
sequence_data="GUUACCCUGGUCAGCGAGUGA [Fam2.1 aminoacylation ribozyme variant]" endpoint_name=self-aminoacylation observed_result=6.72
sequence_data="CCACACUUCAAACAAUCCGUC [Fam1B.1 aminoacylation ribozyme variant]" endpoint_name=self-aminoacylation observed_result=0.559
sequence_data="AUUACCCGGGUAAUCGAGUGA [Fam2.1 aminoacylation ribozyme variant]" endpoint_name=self-aminoacylation observed_result=12.1
sequence_data="AUUCACUUACGUCAUCGGGUG [Fam2.2 aminoacylation ribozyme variant]" endpoint_name=self-aminoacylation observed_result=5.61
sequence_data="UAGUUUGCUAAUCGUCGCAAG [Fam3.1 aminoacylation ribozyme variant]" endpoint_name=self-aminoacylation observed_result=1.51
sequence_data="AUUCACAUAGAUCAUCGGGUG [Fam2.2 aminoacylation ribozyme variant]" endpoint_name=self-aminoacylation observed_result=4.43
sequence_data="AUUACGCUGGUCAUCGAGUGC [Fam2.1 aminoacylation ribozyme variant]" endpoint_name=self-aminoacylation observed_result=1.44

* * *

System: biotinyl-Ile-oxazolone
Assay: self-aminoacylation, catalytic enhancement (BIO) (fold over background); higher = more active; k-Seq, kA / k0A0; sequences stand for … in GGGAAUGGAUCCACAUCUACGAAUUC…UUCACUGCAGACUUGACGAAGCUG
Fewer inactive variants are shown than the library holds.
Okay, here is how we bin by self-aminoacylation: 1 (below 1), 2 (1 to below 3), 3 (3 or more)

sequence_data="AAGUUGGCUCAUAGUCGCAAG [Fam3.1 aminoacylation ribozyme variant]" target_entity=biotinyl-Ile-oxazolone classification=2
sequence_data="CUACUCCACACAAUCGGUCUG [Fam1A.1 aminoacylation ribozyme variant]" target_entity=biotinyl-Ile-oxazolone classification=1
sequence_data="CCACACCUCAAGCUAUCGGUC [Fam1B.1 aminoacylation ribozyme variant]" target_entity=biotinyl-Ile-oxazolone classification=2
sequence_data="AUUACCCUGGUCAUCCCGUGA [Fam2.1 aminoacylation ribozyme variant]" target_entity=biotinyl-Ile-oxazolone classification=3
sequence_data="AAGUUUACAAAUAGUCGCAAG [Fam3.1 aminoacylation ribozyme variant]" target_entity=biotinyl-Ile-oxazolone classification=2
sequence_data="AUUACCCUCGUCAUCGUGUGA [Fam2.1 aminoacylation ribozyme variant]" target_entity=biotinyl-Ile-oxazolone classification=2
sequence_data="ACUCACCUAGGUCAUCGCGUG [Fam2.2 aminoacylation ribozyme variant]" target_entity=biotinyl-Ile-oxazolone classification=3
sequence_data="CUACUUCAAACAGUCGCUCUG [Fam1A.1 aminoacylation ribozyme variant]" target_entity=biotinyl-Ile-oxazolone classification=2
sequence_data="CACUUUGCUAAUAGUCGCAAG [Fam3.1 aminoacylation ribozyme variant]" target_entity=biotinyl-Ile-oxazolone classification=2
sequence_data="AUUCACCUAGGACAUCCGGUG [Fam2.2 aminoacylation ribozyme variant]" target_entity=biotinyl-Ile-oxazolone classification=3
sequence_data="CUGCUUCAAACAAUCGGUCUG [Fam1A.1 aminoacylation ribozyme variant]" target_entity=biotinyl-Ile-oxazolone classification=2
sequence_data="AUUCACCUAAGUCAUCGGGCG [Fam2.2 aminoacylation ribozyme variant]" target_entity=biotinyl-Ile-oxazolone classification=2
sequence_data="AUGAACCUGGUCAUCGAGUGA [Fam2.1 aminoacylation ribozyme variant]" target_entity=biotinyl-Ile-oxazolone classification=3
sequence_data="AAGUUUGCUAAUAUCCGCAAG [Fam3.1 aminoacylation ribozyme variant]" target_entity=biotinyl-Ile-oxazolone classification=1
sequence_data="AUUCACUUAGGUCAUCGGGUG [Fam2.2 aminoacylation ribozyme variant]" target_entity=biotinyl-Ile-oxazolone classification=3
sequence_data="AUUACCCCGGUCAUCGUGUGA [Fam2.1 aminoacylation ribozyme variant]" target_entity=biotinyl-Ile-oxazolone classification=2
sequence_data="AAGUUUGCUAAUAAUUGCAAG [Fam3.1 aminoacylation ribozyme variant]" target_entity=biotinyl-Ile-oxazolone classification=1
sequence_data="AUUACCCUGGGCAUCGAGUUA [Fam2.1 aminoacylation ribozyme variant]" target_entity=biotinyl-Ile-oxazolone classification=1

* * *

System: biotinyl-Ile-oxazolone
Experiment: self-aminoacylation, catalytic enhancement (BIO) (fold over background); higher = more active; k-Seq, kA / k0A0; sequences stand for … in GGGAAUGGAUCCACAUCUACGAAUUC…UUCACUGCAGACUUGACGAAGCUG
This sample holds only a part of the variants without activity.
Entries annotated with measured self-aminoacylation
endpoint.name: self-aminoacylation

sequence_data="AAGUUUGCUAAGAAUCGCAAG [Fam3.1 aminoacylation ribozyme variant]" endpoint_name=self-aminoacylation observed_result=0.583
sequence_data="AUUCACCUAGUUCAUCAGGUG [Fam2.2 aminoacylation ribozyme variant]" endpoint_name=self-aminoacylation observed_result=0.872
sequence_data="AAGUUUGCUAAUAGUCGUUAG [Fam3.1 aminoacylation ribozyme variant]" endpoint_name=self-aminoacylation observed_result=0.822
sequence_data="AUUACCCUGGUGAUGGAGUGA [Fam2.1 aminoacylation ribozyme variant]" endpoint_name=self-aminoacylation observed_result=2.62
sequence_data="GUUCACCUAGGUCAUCGGUUG [Fam2.2 aminoacylation ribozyme variant]" endpoint_name=self-aminoacylation observed_result=1.17
sequence_data="GUUGACCUAGGUCAUCGGGUG [Fam2.2 aminoacylation ribozyme variant]" endpoint_name=self-aminoacylation observed_result=4.11
sequence_data="CUGCUUCAAACAAUCGGCCUG [Fam1A.1 aminoacylation ribozyme variant]" endpoint_name=self-aminoacylation observed_result=3.07
sequence_data="AAGUUUGCUCAUAGGCGCAAG [Fam3.1 aminoacylation ribozyme variant]" endpoint_name=self-aminoacylation observed_result=0.735
sequence_data="AUUACCGUGGUCAUGGAGUGA [Fam2.1 aminoacylation ribozyme variant]" endpoint_name=self-aminoacylation observed_result=2.27
sequence_data="AUUCACUUAGGUCAUCGGGAG [Fam2.2 aminoacylation ribozyme variant]" endpoint_name=self-aminoacylation observed_result=1.02
sequence_data="AUUACCCUGGUCAUCGGUUGA [Fam2.1 aminoacylation ribozyme variant]" endpoint_name=self-aminoacylation observed_result=1.62
sequence_data="CUACGCUUCAAGCAAUCGGUC [Fam1B.1 aminoacylation ribozyme variant]" endpoint_name=self-aminoacylation observed_result=0.964
sequence_data="AAUUUUGCUAAUAGUCUCAAG [Fam3.1 aminoacylation ribozyme variant]" endpoint_name=self-aminoacylation observed_result=1.38
sequence_data="AGUCACCUAGGUCAUCGCGUG [Fam2.2 aminoacylation ribozyme variant]" endpoint_name=self-aminoacylation observed_result=8.4
sequence_data="CCACACUGCAAGCAAUCGGUU [Fam1B.1 aminoacylation ribozyme variant]" endpoint_name=self-aminoacylation observed_result=1.77
sequence_data="AAGUUUGAUAGUAGUCGCAAG [Fam3.1 aminoacylation ribozyme variant]" endpoint_name=self-aminoacylation observed_result=0.973
sequence_data="CUACUUCAAACAACCGGUCGG [Fam1A.1 aminoacylation ribozyme variant]" endpoint_name=self-aminoacylation observed_result=0.978
sequence_data="AUUCAGCUAGGUCAUGGGGUG [Fam2.2 aminoacylation ribozyme variant]" endpoint_name=self-aminoacylation observed_result=2.74
sequence_data="UUACUUCAAACAAUCUGUCUG [Fam1A.1 aminoacylation ribozyme variant]" endpoint_name=self-aminoacylation observed_result=1.45
sequence_data="UAGUUUGCUAAUCGUCGCAAG [Fam3.1 aminoacylation ribozyme variant]" endpoint_name=self-aminoacylation observed_result=1.62
sequence_data="GUUACCCUGGUCAGCGAGUGA [Fam2.1 aminoacylation ribozyme variant]" endpoint_name=self-aminoacylation observed_result=4.8
sequence_data="CAACACUUCAAGCAAUUGGUC [Fam1B.1 aminoacylation ribozyme variant]" endpoint_name=self-aminoacylation observed_result=0.98
sequence_data="CUACAUCAAAGAAUCGGUCUG [Fam1A.1 aminoacylation ribozyme variant]" endpoint_name=self-aminoacylation observed_result=0.78
sequence_data="CUACUACAAACAAUCGGUCUG [Fam1A.1 aminoacylation ribozyme variant]" endpoint_name=self-aminoacylation observed_result=0.694
sequence_data="CUACUUAAAACAAUCGGUCCG [Fam1A.1 aminoacylation ribozyme variant]" endpoint_name=self-aminoacylation observed_result=0.878
sequence_data="CUACUUUAAACAAUCGGUUUG [Fam1A.1 aminoacylation ribozyme variant]" endpoint_name=self-aminoacylation observed_result=0.824
sequence_data="CAGUUAGCUAAUAGUCGCAAG [Fam3.1 aminoacylation ribozyme variant]" endpoint_name=self-aminoacylation observed_result=1.21
sequence_data="GUUACCCUGGUCUUCGAGUGA [Fam2.1 aminoacylation ribozyme variant]" endpoint_name=self-aminoacylation observed_result=4.45
sequence_data="AUUACCCUGAUCCUCGAGUGA [Fam2.1 aminoacylation ribozyme variant]" endpoint_name=self-aminoacylation observed_result=2.35
sequence_data="AAGUUUGCUAAUAGUGGGAAG [Fam3.1 aminoacylation ribozyme variant]" endpoint_name=self-aminoacylation observed_result=0.841
sequence_data="CAACACUUCAAGCAAACGGUC [Fam1B.1 aminoacylation ribozyme variant]" endpoint_name=self-aminoacylation observed_result=0.92
sequence_data="AUUCACCGAGGUGAUCGGGUG [Fam2.2 aminoacylation ribozyme variant]" endpoint_name=self-aminoacylation observed_result=3.8
sequence_data="ACUCACCUAGUUCAUCGGGUG [Fam2.2 aminoacylation ribozyme variant]" endpoint_name=self-aminoacylation observed_result=2.87
sequence_data="CUACUUCAAACAAUCGUUAUG [Fam1A.1 aminoacylation ribozyme variant]" endpoint_name=self-aminoacylation observed_result=0.683
sequence_data="AAGUUUGCUAACAGUCGCACG [Fam3.1 aminoacylation ribozyme variant]" endpoint_name=self-aminoacylation observed_result=0.921
